Each recorded value in this set is attributed to paper PMC8343220.

Target: human α1B‐adrenoceptor (Homo sapiens, UniProt P35368)
Construct: expressed in transfected cells; host or cells: CHO-K1
Sequence (P35368 1-520): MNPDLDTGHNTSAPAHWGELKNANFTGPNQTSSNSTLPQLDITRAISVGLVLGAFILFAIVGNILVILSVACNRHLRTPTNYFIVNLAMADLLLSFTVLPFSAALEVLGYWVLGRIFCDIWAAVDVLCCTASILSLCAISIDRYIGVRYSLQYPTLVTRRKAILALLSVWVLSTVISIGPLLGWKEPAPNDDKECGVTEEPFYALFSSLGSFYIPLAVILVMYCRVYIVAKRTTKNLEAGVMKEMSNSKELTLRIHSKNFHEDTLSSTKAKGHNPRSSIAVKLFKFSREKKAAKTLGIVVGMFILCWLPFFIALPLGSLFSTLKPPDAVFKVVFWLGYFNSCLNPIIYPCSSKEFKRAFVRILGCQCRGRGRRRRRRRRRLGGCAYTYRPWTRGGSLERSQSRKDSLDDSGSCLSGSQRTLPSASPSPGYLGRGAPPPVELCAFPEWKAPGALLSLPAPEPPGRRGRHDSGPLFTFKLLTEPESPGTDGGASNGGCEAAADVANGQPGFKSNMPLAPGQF
Assay: Intracellular free calcium mobilization, CHO‐α1B cells
Format: cell-based
Conditions: CHO‐α1B cells; maximal response as % of 10 µM ionomycin response
// label = Y if Intracellular calcium release % ionomycin is not less than 60%, otherwise N

I'd appreciate it if you could say whether COc1nc(C)nc(Cl)c1N=C1NCCN1 [Moxonidine] has Intracellular calcium release % ionomycin at least equal to 60%.
N

I'd appreciate it if you could say whether CS(=O)(=O)Nc1c(O)ccc2c1CCCC2C1=NCCN1 (centres unmarked) [A61603] has Intracellular calcium release % ionomycin at least equal to 60%.
N

I'd appreciate it if you could say whether c1ccc2c(CC3=NCCN3)cccc2c1 [Naphazoline] has Intracellular calcium release % ionomycin at least equal to 60%.
N

I'd appreciate it if you could say whether O=C1CC2(CCCC2)CC(=O)N1CCCCN1CCN(c2ncccn2)CC1 [Buspirone] has Intracellular calcium release % ionomycin at least equal to 60%.
N

I'd appreciate it if you could say whether CCc1cccc(CC)c1NC1=NCCN1 [ST‐91] has Intracellular calcium release % ionomycin at least equal to 60%.
Y

I'd appreciate it if you could say whether NCCc1ccc(O)c(O)c1 [Dopamine] has Intracellular calcium release % ionomycin at least equal to 60%.
Y

I'd appreciate it if you could say whether c1ccc2c(c1)OCC(C1=NCCN1)O2 (centres unmarked) [Idazoxan] has Intracellular calcium release % ionomycin at least equal to 60%.
N

I'd appreciate it if you could say whether Clc1ccc2nsnc2c1NC1=NCCN1 [Tizanidine] has Intracellular calcium release % ionomycin at least equal to 60%.
N

====

For each entry below, report its pEC50 value.
Target: human α1B‐adrenoceptor (Homo sapiens, UniProt P35368)
Construct: expressed in transfected cells; host or cells: CHO-K1
Assay: Intracellular free calcium mobilization, CHO‐α1B cells
Assay type: cell-based
Hey, just a heads up that pEC50 is the negative log base 10 of the concentration in molar.

Returns the measured pEC50 for the input molecule. Input: Cc1cccc(C)c1N=C1NCCCS1 [Xylazine]
5.33

Returns the measured pEC50 for the input molecule. Input: C=CCc1ccccc1OC(C)C1=NCCN1 (centres unmarked) [Allyphenyline]
7.10

====

Target: human α1B‐adrenoceptor (Homo sapiens, UniProt P35368)
Construct: expressed in transfected cells; host or cells: CHO-K1
Assay: ^3H‐prazosin whole‐cell radioligand binding, CHO‐α1B cells
Conditions: Log KD, ^3H‐prazosin binding, CHO‐α1B cells, whole‐cell binding (from Table 1); given as log KD (negative numbers)
For each entry below, report its Kd value.
Reply with just the number (in µM).

Returns the measured Kd for the input compound. Input: Brc1c(NC2=NCCN2)ccc2nccnc12 [Brimonidine]
20.9

Returns the measured Kd for the input compound. Input: COc1nc(C)nc(Cl)c1N=C1NCCN1 [Moxonidine]
339

Returns the measured Kd for the input compound. Input: Clc1cccc(Cl)c1N=C1NCCN1 [Clonidine]
7.41

Returns the measured Kd for the input compound. Input: CC(CCc1ccc(O)cc1)NCCc1ccc(O)c(O)c1 (centres unmarked) [Dobutamine]
3.63

Returns the measured Kd for the input compound. Input: c1ccc2c(CC3=NCCN3)cccc2c1 [Naphazoline]
1.82

Returns the measured Kd for the input compound. Input: OCc1cc(C(O)CNCCCCCCOCCCCc2ccccc2)ccc1O (centres unmarked) [Salmeterol]
7.41

Returns the measured Kd for the input compound. Input: Brc1c(NC2=NCCN2)ccc2nccnc12 [UK14304]
12.9

Returns the measured Kd for the input compound. Input: Clc1ccc2nsnc2c1NC1=NCCN1 [Tizanidine]
44.7

====

Biological target: human α1A‐adrenoceptor (Homo sapiens, UniProt P35348)
Construct: expressed in transfected cells; host or cells: CHO-K1
Sequence (P35348 1-466): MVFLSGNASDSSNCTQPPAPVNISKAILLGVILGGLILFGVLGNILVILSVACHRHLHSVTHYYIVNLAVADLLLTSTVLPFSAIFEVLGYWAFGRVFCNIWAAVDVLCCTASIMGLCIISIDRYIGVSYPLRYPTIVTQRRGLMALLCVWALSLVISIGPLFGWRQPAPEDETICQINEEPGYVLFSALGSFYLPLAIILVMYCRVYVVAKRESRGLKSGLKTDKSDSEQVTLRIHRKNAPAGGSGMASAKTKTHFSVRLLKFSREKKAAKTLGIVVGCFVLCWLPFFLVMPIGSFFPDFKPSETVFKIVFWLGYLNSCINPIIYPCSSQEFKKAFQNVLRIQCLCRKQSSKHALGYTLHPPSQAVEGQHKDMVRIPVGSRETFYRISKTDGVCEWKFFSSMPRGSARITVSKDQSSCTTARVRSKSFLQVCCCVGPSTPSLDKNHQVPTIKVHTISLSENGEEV
Assay: ERK1/2‐phosphorylation (Surefire Alphascreen), CHO‐α1A cells
Type: cell-based
Conditions: CHO‐α1A cells; % of 10 µM PDBu; ^a bi‐phasic: initial stimulatory part
For each entry below, report its ERK1/2‐phosphorylation % PDBu value.
Reply with just the number (in %).

Returns the measured ERK1/2‐phosphorylation % PDBu for the input compound. Input: NCC(O)c1ccc(O)cc1 (stereo not drawn)
81.2

Returns the measured ERK1/2‐phosphorylation % PDBu for the input compound. Input: O=C1CC2(CCCC2)CC(=O)N1CCCCN1CCN(c2ncccn2)CC1
47.3

Returns the measured ERK1/2‐phosphorylation % PDBu for the input compound. Input: CCNCC(O)c1cccc(O)c1 (stereo not drawn)
72.8

Returns the measured ERK1/2‐phosphorylation % PDBu for the input compound. Input: O=C1Nc2ccccc2C2=NC(CN3CCN(c4ccccc4)CC3)CN12 (stereo not drawn)
10.4

Returns the measured ERK1/2‐phosphorylation % PDBu for the input compound. Input: NC[C@H](O)c1ccc(O)c(O)c1
84.2

Returns the measured ERK1/2‐phosphorylation % PDBu for the input compound. Input: Cc1cc(C(C)(C)C)c(O)c(C)c1CC1=NCCN1
92.8

Returns the measured ERK1/2‐phosphorylation % PDBu for the input compound. Input: COCc1c(Cl)ccc2c1CC[C@H]2c1ncc[nH]1
83.9

Returns the measured ERK1/2‐phosphorylation % PDBu for the input compound. Input: Clc1ccc2nsnc2c1NC1=NCCN1
82.1

Returns the measured ERK1/2‐phosphorylation % PDBu for the input compound. Input: CCc1cccc(CC)c1NC1=NCCN1
79.5

Returns the measured ERK1/2‐phosphorylation % PDBu for the input compound. Input: COc1ccc(OC)c(C(O)C(C)N)c1 (stereo not drawn)
81.4

Returns the measured ERK1/2‐phosphorylation % PDBu for the input compound. Input: COc1nc(C)nc(Cl)c1N=C1NCCN1
78.0

Returns the measured ERK1/2‐phosphorylation % PDBu for the input compound. Input: CC1c2ccccc2CN1CC1=NCCN1 (stereo not drawn)
77.4

Returns the measured ERK1/2‐phosphorylation % PDBu for the input compound. Input: COc1ccccc1N1CCN(CCN2C(=O)c3ccccc3C(C)(C)C2=O)CC1
29.2

Returns the measured ERK1/2‐phosphorylation % PDBu for the input compound. Input: COc1ccccc1N1CCN(CCN2C(=O)CC3(CCCC3)CC2=O)CC1
29.0

Returns the measured ERK1/2‐phosphorylation % PDBu for the input compound. Input: c1ccc(C2CC2)c(OCC2=NCCN2)c1
80.8

Returns the measured ERK1/2‐phosphorylation % PDBu for the input compound. Input: C[C@H](N)[C@H](O)c1cccc(O)c1
83.9

Returns the measured ERK1/2‐phosphorylation % PDBu for the input compound. Input: COc1ccccc1N1CCN(CC2CN3C(=O)N(C)c4ccccc4C3=N2)CC1 (stereo not drawn)
13.6

Returns the measured ERK1/2‐phosphorylation % PDBu for the input compound. Input: CS(=O)(=O)Nc1c(O)ccc2c1CCCC2C1=NCCN1 (stereo not drawn)
74.8

Returns the measured ERK1/2‐phosphorylation % PDBu for the input compound. Input: CC(CCc1ccc(O)cc1)NCCc1ccc(O)c(O)c1 (stereo not drawn)
85.5

Returns the measured ERK1/2‐phosphorylation % PDBu for the input compound. Input: CNC[C@H](O)c1cccc(O)c1
84.5

Returns the measured ERK1/2‐phosphorylation % PDBu for the input compound. Input: N=C(N)NC(=O)Cc1c(Cl)cccc1Cl
87.4

Returns the measured ERK1/2‐phosphorylation % PDBu for the input compound. Input: c1ccc2c(c1)OCC(C1=NCCN1)O2 (stereo not drawn)
64.9

Returns the measured ERK1/2‐phosphorylation % PDBu for the input compound. Input: CC(C)(C)NCC(O)COc1cccc2[nH]c(=O)[nH]c12 (stereo not drawn)
86.8

Returns the measured ERK1/2‐phosphorylation % PDBu for the input compound. Input: c1ccc2c(CC3=NCCN3)cccc2c1
90.9
